Reported fold change (FC) by item:
test: Induction of anti-CD3/CD28 antibodies-stimulated human T cell activation at 0.3 uM assessed fold increase in IL-2 secretion measured by ELISA assay; type: functional, T cell line

>  <COMPOUND>
Cn1cnnc1CC1(c2cccc(NC(=O)c3cc(C4CC4)nc(C4CC4)n3)c2)COC1

>  <fold change (FC)>
2.51

$$$$
>  <COMPOUND>
C[C@H](Cc1nncn1C)c1cccc(NC(=O)c2cc(O[C@@H]3CC[C@@H](O)C3)ccn2)c1 (relative stereo)

>  <fold change (FC)>
2.51

$$$$
>  <COMPOUND>
Cn1cnnc1CC(C)(C)c1cccc(N2Cc3c(cc(C4CC4)cc3C(F)(F)F)C2=O)c1

>  <fold change (FC)>
1.01

$$$$
>  <COMPOUND>
Cn1cnnc1CC1(c2cccc(N3Cc4c(cc(CN5CCCC5)nc4C4CC4)C3=O)c2)COC1

>  <fold change (FC)>
1.01

$$$$
>  <COMPOUND>
C[C@@H](c1cc2c(c(C(F)(F)F)c1)CN(c1cccc(C3(Cc4nncn4C)COC3)c1)C2=O)N1CC(F)C1

>  <fold change (FC)>
5

$$$$
>  <COMPOUND>
CC(c1cc2c(c(C3CC3)n1)CN(c1cccc(C3(Cc4nncn4C)COC3)c1)C2=O)N1CCCC1 (stereo not drawn)

>  <fold change (FC)>
1.01

$$$$

---

Reported fold change (FC) by item:
assay: Induction of anti-CD3 antibodies-stimulated human T cell activation at 1 uM assessed fold increase in IL-2 secretion measured by ELISA assay; format: functional, T cell line; further: reference of the scale not given here
PROPERTY: fold change (FC)

>  <CHEMICAL_SMILES>
C[C@H](Cc1nncn1C)c1cc(OCC(F)F)nc(N2Cc3c(cccc3C(F)(F)F)C2=O)c1

>  <REPORTED>
0.151

$$$$
>  <CHEMICAL_SMILES>
Cn1cnnc1C(F)(F)[C@](C)(F)c1cccc(NC(=O)c2nc3c(C(F)(F)F)cccc3[nH]2)c1

>  <REPORTED>
0.051

$$$$
>  <CHEMICAL_SMILES>
Cc1cc(C(=O)Nc2cccc(C3(Cc4nncn4C)CCC3)c2)nc(C2CC2)n1

>  <REPORTED>
0.051

$$$$
>  <CHEMICAL_SMILES>
Cn1cnnc1[C@@H](F)C1(c2cccc(N3Cc4c(cc(CN5CCCCC5)cc4C(F)(F)F)C3=O)c2)COC1

>  <REPORTED>
0.101

$$$$

---

assay: Induction of anti-CD3 antibodies-stimulated human CD8+ T cell activation in immunocompetent mouse assessed fold increase in CD25 expression at 180 mg/kg, po administered twice a day; format: functional; further: reference of the scale not given here

>  <MOLECULE>
Cn1cnnc1CC1(c2cccc(NC(=O)c3cc(CN4CCC5(CC5)C4)cc(C4CC4)n3)c2)COC1

>  <RESULT_QUALIFIER>
=

>  <fold change (FC)>
1.51

$$$$
>  <MOLECULE>
C[C@@H](c1cc2c(c(C(F)(F)F)c1)CN(c1cccc(C3([C@@H](F)c4nncn4C)COC3)c1)C2=O)N1CCC2(CC2)C1 (single isomer, unassigned)

>  <RESULT_QUALIFIER>
=

>  <fold change (FC)>
1.51

$$$$
>  <MOLECULE>
Cc1cc(C(=O)Nc2cccc(C3(Cc4nncn4C)COC3)c2)nc(C2CC2)n1

>  <RESULT_QUALIFIER>
=

>  <fold change (FC)>
1

$$$$
>  <MOLECULE>
Cn1cnnc1CC1(c2cccc(N3Cc4c(cc(CN5CC[C@@H](C#N)C5)cc4C(F)(F)F)C3=O)c2)COC1

>  <RESULT_QUALIFIER>
<

>  <fold change (FC)>
1

$$$$
>  <MOLECULE>
C[C@H](c1cc2c(c(C(F)(F)F)c1)CN(c1cccc(C3(Cc4nncn4C)COC3)c1)C2=O)N1CC[C@H](F)C1

>  <RESULT_QUALIFIER>
=

>  <fold change (FC)>
1

$$$$

---

assay: Induction of anti-CD3 antibodies-stimulated human T cell activation at 1 uM assessed fold increase in IL-2 secretion measured by ELISA assay; type: functional, T cell line; further: reference of the scale not given here

>  <COMPOUND>
C[C@H](CC1=NN=CC1C(F)(F)F)c1cccc(N2Cc3c(cc(C(=O)N4CC[C@H](O)C4)cc3C(F)(F)F)C2=O)c1 (some centres undefined)

>  <fold change (FC)>
0.051

$$$$
>  <COMPOUND>
Cn1cnnc1[C@H](F)C1(c2cccc(N3Cc4c(cc(CN5[C@H]6CC[C@H]5CC(F)C6)cc4C(F)(F)F)C3=O)c2)COC1 (some centres undefined)

>  <fold change (FC)>
>=0.201

$$$$
>  <COMPOUND>
Cc1cc(C(=O)Nc2cccc([C@H](C)Cc3nncn3C)c2)nc(C(F)(F)F)n1

>  <fold change (FC)>
>=0.201

$$$$

---

experiment: Induction of anti-CD3/CD28 antibodies-stimulated human T cell activation at 4 uM assessed fold increase in IL-2 secretion measured by ELISA assay; format: functional, T cell line
PROPERTY: fold change (FC)

>  <COMPOUND>
C[C@H](Sc1nncn1C)c1cccc(NC(=O)c2ccc(F)c(C3CC3)n2)c1

>  <REPORTED>
>=7.5

$$$$
>  <COMPOUND>
C[C@@H](c1cccc(N2Cc3c(cccc3C(F)(F)F)C2=O)c1)[C@@H](F)c1nncn1C (single isomer, unassigned)

>  <REPORTED>
2.51

$$$$
>  <COMPOUND>
Cn1cnnc1CC1(c2cccc(N3Cc4c(cc(CN5CC[C@H](F)C5)cc4C(F)(F)F)C3=O)c2)COC1

>  <REPORTED>
>=7.5

$$$$
>  <COMPOUND>
Cn1cnnc1[C@@H]1C[C@@H]1c1cccc(N2Cc3c(ccnc3C(F)(F)F)C2=O)c1

>  <REPORTED>
1.01

$$$$
>  <COMPOUND>
Cc1cc(C(=O)Nc2cccc([C@H](C)Sc3nncn3C)c2)nc2ccccc12

>  <REPORTED>
2.51

$$$$
>  <COMPOUND>
Cc1cnnn1C[C@@H](C)c1cccc(NC(=O)c2cccc(C(F)(F)F)n2)c1

>  <REPORTED>
2.51

$$$$
>  <COMPOUND>
C[C@H](Sc1nncn1C)c1cccc(NC(=O)c2cccc(C(C)(F)F)n2)c1

>  <REPORTED>
2.51

$$$$
>  <COMPOUND>
C[C@H](Cc1nncn1C)c1cccc(N2Cc3c(cc(CO)cc3C(F)(F)F)C2=O)c1

>  <REPORTED>
>=7.5

$$$$
>  <COMPOUND>
Cn1cnnc1CC1(c2cccc(N3Cc4c(cc(CN5CC(C(=O)O)C5)cc4C(F)(F)F)C3=O)c2)COC1

>  <REPORTED>
1.01

$$$$

---

test: Induction of anti-CD3/CD28 antibodies-stimulated human T cell activation at 10 uM assessed fold increase in GM-CSF secretion measured by ELISA assay; format: functional, T cell line
Reported fold change (FC) by item:
PROPERTY: fold change (FC)

>  <CHEMICAL_SMILES>
Cn1cnnc1CC1(c2cccc(N3Cc4c(cc(CN5CC(F)C5)cc4C(F)(F)F)C3=O)c2)COC1

>  <RESULT_QUALIFIER>
>

>  <REPORTED>
4

$$$$
>  <CHEMICAL_SMILES>
Cn1cnnc1C(F)(F)[C@](C)(F)c1cccc(N2Cc3c(cc(CN4CC[C@@H](C#N)C4)cc3C(F)(F)F)C2=O)c1

>  <RESULT_QUALIFIER>
>

>  <REPORTED>
4

$$$$
>  <CHEMICAL_SMILES>
C[C@H](Cc1nncn1C)c1cccc(NC(=O)c2n[nH]c3c2CCC3)c1

>  <RESULT_QUALIFIER>
=

>  <REPORTED>
2.01

$$$$
>  <CHEMICAL_SMILES>
C[C@H](Sc1nncn1C)c1cccc(NC(=O)c2cccc(C(F)(F)F)n2)c1

>  <RESULT_QUALIFIER>
=

>  <REPORTED>
2.01

$$$$
>  <CHEMICAL_SMILES>
C[C@H](Cc1nncn1C)c1cccc(N2Cc3c(cccc3C(F)(F)F)C2=O)c1.Cl

>  <RESULT_QUALIFIER>
=

>  <REPORTED>
1.51

$$$$
>  <CHEMICAL_SMILES>
C[C@H](Cc1nncn1C)c1cccc(NC(=O)c2cccc(CCO)n2)c1

>  <RESULT_QUALIFIER>
=

>  <REPORTED>
1.51

$$$$
>  <CHEMICAL_SMILES>
Cn1cnnc1C(F)(F)[C@](C)(F)c1cccc(N2Cc3c(cc(C(=O)N4CC[C@H](O)C4)cc3C(F)(F)F)C2=O)c1

>  <RESULT_QUALIFIER>
=

>  <REPORTED>
2.01

$$$$

---

Reported fold change (FC) by item:
assay: Induction of activation of human CD56+ CD3- NK cells co-cultured with human K562 cells in 1:1 ratio and assessed as increase in IFN-gamma secretion at 1 uM measured by ELISA assay; type: functional, Natural killer cell
PROPERTY: fold change (FC)

>  <CHEMICAL_SMILES>
Cn1cnnc1C(F)(F)[C@](C)(F)c1cccc(N2Cc3c(cc(CN4CCC(F)(F)C4)cc3C(F)(F)F)C2=O)c1

>  <REPORTED>
1.01

$$$$
>  <CHEMICAL_SMILES>
C[C@H](Cc1nncn1C)c1cccc(NC(=O)c2ccnc(C(F)(F)F)n2)c1

>  <REPORTED>
1.01

$$$$
